target: Factor X, P00742
Sequence (P00742 whole entry, looked up): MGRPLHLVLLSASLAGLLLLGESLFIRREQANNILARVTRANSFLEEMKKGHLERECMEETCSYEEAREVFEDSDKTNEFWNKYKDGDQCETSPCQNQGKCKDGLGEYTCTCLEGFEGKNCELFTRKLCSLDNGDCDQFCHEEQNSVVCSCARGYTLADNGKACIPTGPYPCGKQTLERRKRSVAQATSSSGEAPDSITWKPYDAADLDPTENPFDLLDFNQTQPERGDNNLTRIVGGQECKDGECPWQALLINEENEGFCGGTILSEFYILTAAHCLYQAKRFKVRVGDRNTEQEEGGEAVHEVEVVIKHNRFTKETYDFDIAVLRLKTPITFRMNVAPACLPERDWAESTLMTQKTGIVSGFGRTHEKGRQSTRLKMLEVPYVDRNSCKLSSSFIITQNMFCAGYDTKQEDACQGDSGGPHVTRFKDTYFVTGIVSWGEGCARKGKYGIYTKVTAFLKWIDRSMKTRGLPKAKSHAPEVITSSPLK
parameterMeasured: % of WT (kcat/KM)
For clarity, give the value followed by its unit.

{"columns": ["protein", "parameterMeasured", "result"],
 "data": [
  ["FIXa-R318Y/R338E/R403E (protein) chain 1: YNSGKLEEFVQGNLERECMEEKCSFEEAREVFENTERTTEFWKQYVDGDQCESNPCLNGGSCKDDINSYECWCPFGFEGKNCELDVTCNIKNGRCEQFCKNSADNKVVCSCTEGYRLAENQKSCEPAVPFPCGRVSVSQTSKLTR chain 2: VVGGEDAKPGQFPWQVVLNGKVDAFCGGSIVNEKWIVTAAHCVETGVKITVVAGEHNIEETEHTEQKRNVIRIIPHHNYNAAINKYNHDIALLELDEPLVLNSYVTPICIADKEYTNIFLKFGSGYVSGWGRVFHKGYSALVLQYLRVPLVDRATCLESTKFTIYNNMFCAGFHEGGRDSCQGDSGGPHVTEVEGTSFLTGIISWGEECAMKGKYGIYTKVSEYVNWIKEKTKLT", "% of WT (kcat/KM)", "134%"]
]}

Suppose we examine the protein FIXa-D203N/F205T/R338E/R403E (protein) chain 1: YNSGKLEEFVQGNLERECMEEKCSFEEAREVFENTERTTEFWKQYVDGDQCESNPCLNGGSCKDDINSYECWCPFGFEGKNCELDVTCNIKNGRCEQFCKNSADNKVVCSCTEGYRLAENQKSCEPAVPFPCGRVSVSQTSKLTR chain 2: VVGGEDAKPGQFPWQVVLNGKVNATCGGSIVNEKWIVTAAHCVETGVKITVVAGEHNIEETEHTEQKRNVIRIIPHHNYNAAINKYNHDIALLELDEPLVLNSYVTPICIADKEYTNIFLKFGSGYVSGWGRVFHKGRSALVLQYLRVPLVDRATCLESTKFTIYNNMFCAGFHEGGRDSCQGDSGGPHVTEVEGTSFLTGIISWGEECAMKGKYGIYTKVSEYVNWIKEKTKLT ; what % of WT (kcat/KM) value has been reported? 41%

Source listed as patent US20210230570.
